Molecular target: SMARCA4 (Homo sapiens, UniProt P51532)
Sequence (P51532 whole entry): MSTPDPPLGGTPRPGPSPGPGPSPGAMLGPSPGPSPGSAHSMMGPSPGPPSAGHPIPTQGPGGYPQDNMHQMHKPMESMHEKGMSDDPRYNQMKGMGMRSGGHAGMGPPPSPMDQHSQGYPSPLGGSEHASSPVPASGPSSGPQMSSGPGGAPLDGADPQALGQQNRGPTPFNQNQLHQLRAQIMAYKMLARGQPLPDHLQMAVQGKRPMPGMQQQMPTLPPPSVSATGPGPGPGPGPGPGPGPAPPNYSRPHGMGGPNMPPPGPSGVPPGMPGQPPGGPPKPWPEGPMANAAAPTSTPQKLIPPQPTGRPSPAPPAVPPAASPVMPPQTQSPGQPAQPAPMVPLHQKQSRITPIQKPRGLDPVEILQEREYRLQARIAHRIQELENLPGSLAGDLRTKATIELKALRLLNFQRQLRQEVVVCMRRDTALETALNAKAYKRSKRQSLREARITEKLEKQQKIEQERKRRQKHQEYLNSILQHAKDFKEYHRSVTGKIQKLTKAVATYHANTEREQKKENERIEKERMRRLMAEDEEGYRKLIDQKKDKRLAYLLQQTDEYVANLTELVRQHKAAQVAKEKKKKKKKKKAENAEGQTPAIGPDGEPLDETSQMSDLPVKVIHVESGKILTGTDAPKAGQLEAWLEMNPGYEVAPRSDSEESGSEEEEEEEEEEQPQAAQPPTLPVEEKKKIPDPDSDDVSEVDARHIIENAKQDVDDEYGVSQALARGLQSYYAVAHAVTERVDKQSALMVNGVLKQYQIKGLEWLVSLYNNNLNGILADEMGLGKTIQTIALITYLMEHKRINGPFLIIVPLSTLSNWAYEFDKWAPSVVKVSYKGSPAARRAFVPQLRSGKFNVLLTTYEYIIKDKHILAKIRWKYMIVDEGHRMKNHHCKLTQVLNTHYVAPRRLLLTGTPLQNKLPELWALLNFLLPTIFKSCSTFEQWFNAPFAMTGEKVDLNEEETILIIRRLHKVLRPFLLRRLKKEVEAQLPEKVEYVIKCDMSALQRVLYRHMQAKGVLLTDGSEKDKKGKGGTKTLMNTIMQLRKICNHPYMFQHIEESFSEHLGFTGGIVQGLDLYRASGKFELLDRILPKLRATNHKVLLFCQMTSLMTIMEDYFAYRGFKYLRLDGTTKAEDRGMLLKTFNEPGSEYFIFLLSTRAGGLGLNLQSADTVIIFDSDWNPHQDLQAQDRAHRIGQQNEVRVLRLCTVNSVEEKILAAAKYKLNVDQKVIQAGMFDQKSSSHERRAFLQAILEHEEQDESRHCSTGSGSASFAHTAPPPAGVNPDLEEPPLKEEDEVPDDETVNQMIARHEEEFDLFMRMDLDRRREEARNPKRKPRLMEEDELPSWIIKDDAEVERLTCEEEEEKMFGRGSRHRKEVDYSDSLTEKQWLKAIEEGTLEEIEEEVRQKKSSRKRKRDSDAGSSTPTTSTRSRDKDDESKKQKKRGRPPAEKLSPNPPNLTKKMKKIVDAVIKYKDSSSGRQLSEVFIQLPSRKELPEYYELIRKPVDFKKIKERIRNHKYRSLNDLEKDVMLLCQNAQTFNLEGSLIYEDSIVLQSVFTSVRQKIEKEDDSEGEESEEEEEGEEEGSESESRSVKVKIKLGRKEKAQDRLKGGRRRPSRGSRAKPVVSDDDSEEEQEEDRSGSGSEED
Test: HiBiT assay for protein degradation, Hela SMARCA4-HiBiT cells (A series)
Format: cell-based
Design: fuse HiBiT to the carboxy terminus of SMARCA2 (Promega CS302365) or SMARCA4 (Promega CS3023225); host or cells: HeLa (CRISPR/Cas9 HiBiT knock-in)
Details: HeLa, read-out: SMARC A4 Hela HiBit Dmax(%)
measured.quantity: Dmax

Which Dmax value is on record for Cc1ncsc1-c1ccc([C@H](C)NC(=O)[C@@H]2C[C@@H](O)CN2C(=O)[C@@H](NC(=O)[C@H]2CC[C@H](CN3CCC(c4ccc5c(n4)-n4c(nc(=O)c6c(Br)cccc64)C54CCCCC4)CC3)CC2)C(C)(C)C)cc1 ?
< 50%

State the recorded Dmax for this entry: Cc1ncsc1-c1ccc([C@H](CCCCCN2CCC(c3ccc4c(c3)C3(CCCCC3)c3nc(=O)c5c(Cl)cccc5n3-4)CC2)NC(=O)[C@@H]2C[C@@H](O)CN2C(=O)[C@@H](NC(=O)C2(F)CC2)C(C)(C)C)cc1
> 90%

// lookup Dmax for Cc1ncsc1-c1ccc([C@H](C)NC(=O)[C@@H]2C[C@@H](O)CN2C(=O)[C@@H](NC(=O)CN2CCC(c3ccc4c(c3)-n3c(nc(=O)c5c(Br)cccc53)C43CCCCC3)CC2)C(C)(C)C)cc1
> 90%

Data request, read-out Dmax, for Cc1ncsc1-c1ccc([C@H](C)NC(=O)[C@@H]2C[C@@H](O)CN2C(=O)[C@@H](NC(=O)CCCCN2CCC(c3ccc4c(c3)C3(CCCCC3)c3nc(=O)c5c(Cl)cccc5n3-4)CC2)C(C)(C)C)cc1
< 50%

* * *

Target: SMARCA4 (Homo sapiens, UniProt P51532)
Experiment: HiBit assay in engineered HT1080 CRISPR knock-in cell, 6 hrs (B series), SMARCA4
Type: cell-based
Details: HT-1080, HT1080 CRISPR knock-in cells, 6 hrs incubation; read-out: SMARC A4 HT1080 HiBit Dmax(%)
measured.quantity: Dmax

Item under review: Cc1ncsc1-c1ccc([C@H](C)NC(=O)[C@@H]2C[C@@H](O)CN2C(=O)[C@@H](c2cc(OCCc3cccc4c3C(C)(C)c3nc(=O)c5c(Cl)cccc5n3-4)no2)C(C)C)cc1 . Reported Dmax?
< 50%

Name the reported Dmax value associated with the compound Cc1ncsc1-c1ccc([C@H](C)NC(=O)[C@@H]2C[C@@H](O)CN2C(=O)[C@@H](c2cc(OCCn3cc(-c4ccc5c(c4)C(C)(C)c4nc(=O)c6c(Cl)cccc6n4-5)cn3)no2)C(C)C)cc1
< 50%

What does the data say about its Dmax? Entry: Cc1ncsc1-c1ccc([C@H](C)NC(=O)[C@@H]2C[C@@H](O)CN2C(=O)[C@H](C(C)C)n2cc([C@H]3CC[C@H](CN4CCN(c5ccc6c(c5)-n5c(nc(=O)c7c(Cl)cccc75)C6(C)C)CC4)CC3)nn2)cc1
70 to 90%

Look up Dmax: Cc1ncsc1-c1ccc([C@H](C)NC(=O)[C@@H]2C[C@@H](O)CN2C(=O)[C@@H](c2cc(OC3CCC(N4CCC(c5ccc6c(c5)-n5c(nc(=O)c7c(Cl)cccc75)C6(C)C)CC4)CC3)no2)C(C)C)cc1 (some centres unmarked)
< 50%

Please look up its Dmax: CC(C)C(C(=O)N1C[C@H](O)C[C@H]1C(=O)N[C@@H](C)c1ccc(-c2ncnn2C)cc1)c1cc(OCCN2CCC(c3ccc4c(c3)C(C)(C)c3nc(=O)c5c(Cl)cccc5n3-4)CC2)no1 (some centres unmarked)
< 50%

Give the measured Dmax of C[C@H](NC(=O)[C@@H]1C[C@@H](O)CN1C(=O)[C@@H](n1cc([C@H]2CC[C@H](CN3CCN(c4ccc5c(c4)-n4c(nc(=O)c6c(Cl)cccc64)C5(C)C)CC3)CC2)nn1)C(C)(C)C)c1ccc(-c2scnc2C#CCN2CCOCC2)cc1 .
70 to 90%

Dear colleague, I am looking for the recorded Dmax of the following compound: Cc1ncsc1-c1ccc([C@H](C)NC(=O)[C@@H]2C[C@@H](O)CN2C(=O)[C@H](C(C)C)n2cc(CCCN3CCC(c4ccc5c(c4)C(C)(C)c4nc(=O)c6c(Cl)cccc6n4-5)CC3)nn2)cc1
> 90%

Could you tell me which Dmax is on file for Cc1ncsc1-c1ccc([C@H](CCCCCn2cc(-c3ccc4c(c3)C(C)(C)c3nc(=O)c5c(Cl)cccc5n3-4)cn2)NC(=O)[C@@H]2C[C@@H](O)CN2C(=O)[C@@H](NC(=O)C2(F)CC2)C(C)(C)C)cc1 ?
< 50%

State the recorded Dmax for this entry: Cc1ncsc1-c1ccc([C@H](C)NC(=O)[C@@H]2C[C@@H](O)CN2C(=O)[C@@H](NC(=O)C2CC(N3CCC(c4ccc5c(c4)C(C)(C)c4nc(=O)c6c(Cl)cccc6n4-5)CC3)C2)C(C)(C)C)cc1 (some centres unmarked)
< 50%

Any idea what Dmax was measured for C[C@H](NC(=O)[C@@H]1C[C@@H](O)CN1C(=O)[C@@H](n1cc([C@H]2CC[C@H](CN3CCN(c4ccc5c(c4)-n4c(nc(=O)c6c(Cl)cccc64)C5(C)C)CC3)CC2)nn1)C(C)(C)C)c1ccc(-c2ccnn2C)cc1 ?
70 to 90%

Tell me the measured Dmax of Cc1ncsc1-c1ccc([C@H](CC(=O)NCCCCN2CCC(c3ccc4c(c3)-n3c(nc(=O)c5c(Cl)cccc53)C4(C)C)CC2)NC(=O)[C@@H]2C[C@@H](O)CN2C(=O)[C@@H](NC(=O)C2(F)CC2)C(C)(C)C)cc1 , please.
< 50%

Any idea what Dmax was measured for Cc1ncsc1-c1ccc([C@H](C)NC(=O)[C@@H]2C[C@@H](O)CN2C(=O)[C@@H](c2cc(OCCn3cc(-c4ccc5c(c4)-n4c(nc(=O)c6c(Cl)cccc64)C5(C)C)cn3)no2)C(C)C)cc1 ?
< 50%

Give its Dmax value. Item: Cc1ncsc1-c1ccc(CNC(=O)[C@@H]2C[C@@H](O)CN2C(=O)[C@@H](NC(=O)C2(F)CC2)C(C)(C)C)c(OCCN2CCC(c3ccc4c(c3)-n3c(nc(=O)c5c(Cl)cccc53)C4(C)C)CC2)c1
> 90%

What value of Dmax has been recorded for this entry: Cc1ncsc1-c1ccc([C@H](C)NC(=O)[C@@H]2C[C@@H](O)CN2C(=O)[C@@H](c2cc(OCCCN3CCC(c4ccc5c(c4)-n4c(nc(=O)c6c(Cl)cccc64)C5(C)C)CC3)no2)C(C)C)cc1
> 90%

Given the entry Cc1ncsc1-c1ccc([C@H](C)NC(=O)[C@@H]2C[C@@H](O)CN2C(=O)C(c2cc(CCN3CCC(c4ccc5c(c4)C(C)(C)c4nc(=O)c6c(Cl)cccc6n4-5)CC3)no2)C(C)C)cc1 (some centres unmarked) , report its measured Dmax.
> 90%

Suppose we examine the compound CC(=O)c1ccc([C@H](C)NC(=O)[C@@H]2C[C@@H](O)CN2C(=O)[C@H](C(C)C)n2cc([C@H]3CC[C@H](CN4CCC(c5ccc6c(c5)-n5c(nc(=O)c7c(Cl)cccc75)C6(C)C)CC4)CC3)nn2)cc1 ; what Dmax value has been reported?
50 to 69%

What value of Dmax has been recorded for this entry: Cc1cc(C(C(=O)N2C[C@H](O)C[C@H]2C(=O)N[C@@H](CCCCCN2CCC(c3ccc4c(c3)C(C)(C)c3nc(=O)c5c(Cl)cccc5n3-4)CC2)c2ccc(-c3scnc3C)cc2)C(C)C)on1 (some centres unmarked)
> 90%
